Tested on: MDA-MB-468 breast
Experiment: NCI tumour cell line growth inhibition, 48 h; in the data active = GI50 below about 0.43 µM; inactive = the rest
Your reply should match one of these outcome classes. 1 for active, -1 for inactive

Please review the following examples before continuing.
NC(=O)C1(N2CCCCC2)CCN(CCCC(=O)c2ccc(F)cc2)CC1 :: 1
CC(=O)Oc1ccccc1C(=O)Oc1ccc(C(=O)/C=C/c2ccncc2)cc1 :: -1
CCCCCCCCCCCCCCCCCCNC(=O)[C@H]1CSC(c2cccs2)N1 (stereo partly drawn) :: -1

Qu. Called result for `Cc1ncc(C(=O)Nc2ccc(CN3CCN(C)CC3)c(C(F)(F)F)c2)cc1C#Cc1cnc(NC2CC2)c2ncccc12`
Ans. -1

Qu. Try `Cn1cc(-c2csc(-c3cn(C)c4ccccc34)n2)c2cnccc21` next.
Ans. 1

Qu. # iterate: `O=S(=O)(CCOCc1ccc(-c2ccc3ncnc(Nc4ccc(OCc5cccc(F)c5)c(Cl)c4)c3c2)o1)c1ccccc1`
Ans. 1

Qu. Entry O=C(O)CCC(NC(=S)S)C(=O)O.[Na+].[Zn+2] (stereo not drawn) please
Ans. -1

Qu. Note, next up: `COc1ccc2cc(-c3ccc(-c4ccc(C(=N)N)s4)s3)ccc2c1`
Ans. -1
